# maps each entry to its pIC50
Test system: 186277-243-T-J2-PDC multi-cell spheroid viability
Measurement Notes: Anticancer human tumor 186277-243-T-J2-PDC patient-derived colon adenocarcinoma cell line growth inhibition [PI3K]
Applied Conditions: curve of first compound; second compound 0.01 µM
pIC50: −log10 of the molar value.

Compound | Experimental System | pIC50
CC(Cn1ccc(-c2ccc(C#N)c(Cl)c2)n1)NC(=O)c1cc(C(C)O)[nH]n1 (centres undefined) + COc1c(OCCCN2CCOCC2)ccc2c3n(c(=NC(=O)c4cnc(N)nc4)nc12)CCN3 | 186277-243-T-J2-PDC multi-cell spheroid viability | < 5.00
CNC(=O)c1ccc(N2C(=S)N(c3ccc(C#N)c(C(F)(F)F)c3)C(=O)C2(C)C)cc1F + COc1c(OCCCN2CCOCC2)ccc2c3n(c(=NC(=O)c4cnc(N)nc4)nc12)CCN3 | 186277-243-T-J2-PDC multi-cell spheroid viability | < 5.00
C#Cc1c(F)ccc2cc(O)cc(-c3ncc4c(N5CC6CCC(C5)N6)nc(OCC56CCCN5CC(F)C6)nc4c3F)c12 (centres undefined) + COc1c(OCCCN2CCOCC2)ccc2c3n(c(=NC(=O)c4cnc(N)nc4)nc12)CCN3 | 186277-243-T-J2-PDC multi-cell spheroid viability | > 7.50
Cn1ncnc1[C@H]1c2n[nH]c(=O)c3cc(F)cc(c23)N[C@@H]1c1ccc(F)cc1 + CC(Nc1ccc2c(c1)OCCn1cc(N3C(=O)OCC3C(F)F)nc1-2)C(N)=O | 186277-243-T-J2-PDC multi-cell spheroid viability | < 7.00
CC(=O)c1c(C)c2cnc(Nc3ccc(N4CCNCC4)cn3)nc2n(C2CCCC2)c1=O + CC(Nc1ccc2c(c1)OCCn1cc(N3C(=O)OCC3C(F)F)nc1-2)C(N)=O | 186277-243-T-J2-PDC multi-cell spheroid viability | < 7.00
C=CC(=O)N1CCN(c2nc(=O)n(-c3c(C)ccnc3C(C)C)c3nc(-c4c(O)cccc4F)c(F)cc23)C(C)C1 (centres undefined) + COc1c(OCCCN2CCOCC2)ccc2c3n(c(=NC(=O)c4cnc(N)nc4)nc12)CCN3 | 186277-243-T-J2-PDC multi-cell spheroid viability | < 5.00
C=CC(=O)N1CCN(c2nc(=O)n(-c3c(C)ccnc3C(C)C)c3nc(-c4c(O)cccc4F)c(F)cc23)C(C)C1 (centres undefined) + CC(Nc1ccc2c(c1)OCCn1cc(N3C(=O)OCC3C(F)F)nc1-2)C(N)=O | 186277-243-T-J2-PDC multi-cell spheroid viability | < 5.00
C[C@@H](NC(=O)c1ncnc(N)c1Cl)c1ncc(C(=O)Nc2cc(C(F)(F)F)c(Cl)cn2)s1 + CC(Nc1ccc2c(c1)OCCn1cc(N3C(=O)OCC3C(F)F)nc1-2)C(N)=O | 186277-243-T-J2-PDC multi-cell spheroid viability | < 5.00
CC1(C)CCC(CN2CCN(c3ccc(C(=O)NS(=O)(=O)c4ccc(NCC5CCOCC5)c([N+](=O)[O-])c4)c(Oc4cnc5[nH]ccc5c4)c3)CC2)=C(c2ccc(Cl)cc2)C1 + COc1c(OCCCN2CCOCC2)ccc2c3n(c(=NC(=O)c4cnc(N)nc4)nc12)CCN3 | 186277-243-T-J2-PDC multi-cell spheroid viability | < 5.00

----------
System: 186277-243-T-J2-PDC multi-cell spheroid viability
Measurement Notes: Anticancer human tumor 186277-243-T-J2-PDC cell line growth inhibition [PI3K];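 note: spheroids exposed to compounds for seven days before viability reading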
Applied Conditions: curve of first compound; second compound 3.16 µM
# maps each entry to its IC50

Compound | Experimental System | Units Symbol | Limit Qualifier | IC50
CC(C)n1nc(-c2ccc3oc(N)nc3c2)c2c(N)ncnc21 + CC(Nc1ncnc2nc[nH]c12)c1cc2cccc(Cl)c2c(=O)n1-c1ccccc1 | 186277-243-T-J2-PDC multi-cell spheroid viability | nM | = | 47.8
C#Cc1c(F)ccc2cc(O)cc(-c3ncc4c(N5CC6CCC(C5)N6)nc(OCC56CCCN5CC(F)C6)nc4c3F)c12 (stereo not drawn) + Cc1nc(NC(=O)N2CCCC2C(N)=O)sc1-c1ccnc(C(C)(C)C(F)(F)F)c1 | 186277-243-T-J2-PDC multi-cell spheroid viability | nM | < | 31.6
CC1(C)CCC(CN2CCN(c3ccc(C(=O)NS(=O)(=O)c4ccc(NCC5CCOCC5)c([N+](=O)[O-])c4)c(Oc4cnc5[nH]ccc5c4)c3)CC2)=C(c2ccc(Cl)cc2)C1 + Cc1nc(NC(=O)N2CCCC2C(N)=O)sc1-c1ccnc(C(C)(C)C(F)(F)F)c1 | 186277-243-T-J2-PDC multi-cell spheroid viability | nM | = | 1500
C=CC(=O)N1CCN(c2nc(=O)n(-c3c(C)ccnc3C(C)C)c3nc(-c4c(O)cccc4F)c(F)cc23)C(C)C1 (stereo not drawn) + Cc1nc(NC(=O)N2CCCC2C(N)=O)sc1-c1ccnc(C(C)(C)C(F)(F)F)c1 | 186277-243-T-J2-PDC multi-cell spheroid viability | nM | = | 605
C[C@@H](NC(=O)c1ncnc(N)c1Cl)c1ncc(C(=O)Nc2cc(C(F)(F)F)c(Cl)cn2)s1 + CC(Nc1ncnc2nc[nH]c12)c1cc2cccc(Cl)c2c(=O)n1-c1ccccc1 | 186277-243-T-J2-PDC multi-cell spheroid viability | nM | > | 10000
C[C@@H](NC(=O)c1ncnc(N)c1Cl)c1ncc(C(=O)Nc2cc(C(F)(F)F)c(Cl)cn2)s1 + Cc1nc(NC(=O)N2CCCC2C(N)=O)sc1-c1ccnc(C(C)(C)C(F)(F)F)c1 | 186277-243-T-J2-PDC multi-cell spheroid viability | nM | = | 382
CC(Cn1ccc(-c2ccc(C#N)c(Cl)c2)n1)NC(=O)c1cc(C(C)O)[nH]n1 (stereo not drawn) + CC(Nc1ncnc2nc[nH]c12)c1cc2cccc(Cl)c2c(=O)n1-c1ccccc1 | 186277-243-T-J2-PDC multi-cell spheroid viability | nM | > | 10000
CC(Cn1ccc(-c2ccc(C#N)c(Cl)c2)n1)NC(=O)c1cc(C(C)O)[nH]n1 (stereo not drawn) + Cc1nc(NC(=O)N2CCCC2C(N)=O)sc1-c1ccnc(C(C)(C)C(F)(F)F)c1 | 186277-243-T-J2-PDC multi-cell spheroid viability | nM | > | 10000

----------
Tested on: 186277-243-T-J2-PDC multi-cell spheroid viability
Measurement Notes: Anticancer human tumor 186277-243-T-J2-PDC cell line growth inhibition [PI3K];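 note: spheroids exposed to compounds for seven days before viability reading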
Applied Conditions: curve of first compound; second compound 0.0316 µM
# maps each entry to its IC50
Quantity Measured: IC50

Molecule | Quantity Measured | Measured Result
CC(Cn1ccc(-c2ccc(C#N)c(Cl)c2)n1)NC(=O)c1cc(C(C)O)[nH]n1 (stereo not given) + CC(Nc1ncnc2nc[nH]c12)c1cc2cccc(Cl)c2c(=O)n1-c1ccccc1 | IC50 | > 10 µM
C=CC(=O)N1CCN(c2nc(=O)n(-c3c(C)ccnc3C(C)C)c3nc(-c4c(O)cccc4F)c(F)cc23)C(C)C1 (stereo not given) + Cc1nc(NC(=O)N2CCCC2C(N)=O)sc1-c1ccnc(C(C)(C)C(F)(F)F)c1 | IC50 | > 10 µM
CC(=O)c1c(C)c2cnc(Nc3ccc(N4CCNCC4)cn3)nc2n(C2CCCC2)c1=O + CC(Nc1ccc2c(c1)OCCn1cc(N3C(=O)OCC3C(F)F)nc1-2)C(N)=O | IC50 | > 0.1 µM
CC1(C)CCC(CN2CCN(c3ccc(C(=O)NS(=O)(=O)c4ccc(NCC5CCOCC5)c([N+](=O)[O-])c4)c(Oc4cnc5[nH]ccc5c4)c3)CC2)=C(c2ccc(Cl)cc2)C1 + COc1c(OCCCN2CCOCC2)ccc2c3n(c(=NC(=O)c4cnc(N)nc4)nc12)CCN3 | IC50 | > 10 µM
C[C@@H](NC(=O)c1ncnc(N)c1Cl)c1ncc(C(=O)Nc2cc(C(F)(F)F)c(Cl)cn2)s1 + CC(Nc1ccc2c(c1)OCCn1cc(N3C(=O)OCC3C(F)F)nc1-2)C(N)=O | IC50 | > 10 µM

----------
Test system: 186277-243-T-J2-PDC multi-cell spheroid viability
Measurement Notes: Anticancer human tumor 186277-243-T-J2-PDC cell line growth inhibition [PI3K]; active means viability on the fitted dose curve at most 10% of control; inactive means the rest;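 note: spheroids exposed to compounds for seven days before viability reading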
Applied Conditions: second compound 0.316 µM; first compound 0.0316 µM
Outcome codes: true (active), false (inactive)

Molecule | Experimental System | Class Assignment
C#Cc1c(F)ccc2cc(O)cc(-c3ncc4c(N5CC6CCC(C5)N6)nc(OCC56CCCN5CC(F)C6)nc4c3F)c12 (centres undefined) + COc1c(OCCCN2CCOCC2)ccc2c3n(c(=NC(=O)c4cnc(N)nc4)nc12)CCN3 | 186277-243-T-J2-PDC multi-cell spheroid viability | true
CCN1CCN(Cc2ccc(Nc3ncc(F)c(-c4cc(F)c5nc(C)n(C(C)C)c5c4)n3)nc2)CC1 + COc1c(OCCCN2CCOCC2)ccc2c3n(c(=NC(=O)c4cnc(N)nc4)nc12)CCN3 | 186277-243-T-J2-PDC multi-cell spheroid viability | true
CC(Cn1ccc(-c2ccc(C#N)c(Cl)c2)n1)NC(=O)c1cc(C(C)O)[nH]n1 (centres undefined) + COc1c(OCCCN2CCOCC2)ccc2c3n(c(=NC(=O)c4cnc(N)nc4)nc12)CCN3 | 186277-243-T-J2-PDC multi-cell spheroid viability | true
Cn1ncnc1[C@H]1c2n[nH]c(=O)c3cc(F)cc(c23)N[C@@H]1c1ccc(F)cc1 + CC(Nc1ncnc2nc[nH]c12)c1cc2cccc(Cl)c2c(=O)n1-c1ccccc1 | 186277-243-T-J2-PDC multi-cell spheroid viability | false

Reference source: PubChem BioAssay AID1963983
